Data origin: ChEMBL document CHEMBL1201862

Test system: T47D
Test: NCI tumour cell line growth inhibition, 48 h
Calls of active or inactive are those of the source. Cut-off read from the data, not from the text of the source: active = GI50 up to about 1.1 µM and inactive = higher.
Please answer using one outcome listed in Y for active, N for inactive

Problem: Please indicate how the test categorized O=C(O)Cc1cccnc1 .
Solution: N

Problem: Please do the same for CCCCCCCCCCCCCC(=O)CBr as well.
Solution: N

Problem: Please do the same for COc1cc2cc(C(=O)N3CC(CCl)c4c3cc(O)c3ccccc43)[nH]c2c(OC)c1OC (stereo not given) as well.
Solution: Y

Problem: Please do the same for O=C(O)C(CCc1ccccc1)N1C(=O)c2ccccc2C1=O (stereo not given) as well.
Solution: N

Problem: Please do the same for CC(=O)OC(C)C1C2=C(C(=O)CC1(C)O)C(=O)c1c(ccc(-c3ccc4c(c3O)C(=O)C3=C(C4=O)C(C(C)OC(C)=O)C(C)(O)CC3=O)c1O)C2=O (stereo not given) as well.
Solution: Y

Problem: Please do the same for CCOc1cc(/C=N\O)cc(/C=N/O)c1O as well.
Solution: N

Problem: Please do the same for c1ccc(-c2cn3nc(N4CCOCC4)sc3n2)cc1 as well.
Solution: N

Problem: Please do the same for COc1ccc2c(-c3ccc(O)cc3)c(Oc3ccccc3)c(=O)oc2c1 as well.
Solution: N

Problem: Please do the same for CC1(C)CC(=O)c2c(nc3c4c([nH]c(-c5ccc(Br)cc5)c24)CC(C)(C)C3)C1 as well.
Solution: N

Problem: Please do the same for C/C(=C\COc1ccc2ccc(=O)oc2c1)C1=CC(=O)C(C)(C)O1 as well.
Solution: N
